biological target: Mu-type opioid receptor (Homo sapiens, UniProt P35372); assay: Agonist activity at human MOP expressed in HEK293 cells coexpressing GloSensor-20F assessed as inhibition of forskolin-induced cAMP accumulation; format: functional, cell-based
Sequence (P35372 whole entry): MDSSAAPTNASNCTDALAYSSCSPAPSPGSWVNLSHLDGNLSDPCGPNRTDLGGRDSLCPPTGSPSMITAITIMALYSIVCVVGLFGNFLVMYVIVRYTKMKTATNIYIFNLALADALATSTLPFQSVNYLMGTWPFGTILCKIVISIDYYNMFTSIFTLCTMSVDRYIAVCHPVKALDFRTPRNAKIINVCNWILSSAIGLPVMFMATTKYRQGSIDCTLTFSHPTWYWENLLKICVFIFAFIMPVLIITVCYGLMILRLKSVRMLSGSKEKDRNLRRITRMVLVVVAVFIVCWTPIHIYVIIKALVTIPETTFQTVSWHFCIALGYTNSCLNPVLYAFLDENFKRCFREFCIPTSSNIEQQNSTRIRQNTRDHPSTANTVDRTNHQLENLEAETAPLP
Numbered stars: 1 amine (or outer) side, 2 acyl side, 3 side chain; on linkers, the order of the positions; unused ones are H or OH. Square brackets hold non-standard residues; d marks the D form. Peptide text beside a SMILES is read from it. Nva(5-(4-Bn-piperidin-1-yl)) = N[C@@H](CCCN1CCC(Cc2ccccc2)CC1)C(=O)O; X2 = O=C1[C@@H](N[*:1])Cc2ccccc2CN1CCCC(=O)[*:2]; X1 = O=C1[C@@H](N[*:1])Cc2ccccc2CN1CCC(=O)[*:2]; Dmt = Cc1cc(O)cc(C)c1C[C@H](N)C(=O)O; d(hArg) = N=C(N)NCCCC[C@@H](N)C(=O)O; dNMeA = CN[C@H](C)C(=O)O
Output: class label from EC50. Mapping: low = under 10 nM, intermediate = from 10 nM up to 20 nM, high = 20 nM and over

Before answering, review these 5 worked examples.
MOLECULE	CLASS
Cc1cc(O)cc(C)c1C[C@H](N)C(=O)N[C@H](CCCNC(=N)N)C(=O)N[C@H]1Cc2c(ccc3ccccc23)CN(CC(=O)N[C@@H](CCCN2CCC(Cc3ccccc3)CC2)C(=O)N[C@@H](Cc2c[nH]c3ccccc23)C(N)=O)C1=O	intermediate
Cc1cc(O)cc(C)c1C[C@H](N)C(=O)N[C@H](CCCCNC(=N)N)C(=O)N[C@H]1Cc2ccccc2CN(CCC(=O)N[C@@H](CCCN2CCC(Cc3ccccc3)CC2)C(=O)N[C@@H](Cc2ccccc2)C(N)=O)C1=O (H-[Dmt][d(hArg)][X1][Nva(5-(4-Bn-piperidin-1-yl))]F-NH2)	high
Cc1cc(O)cc(C)c1C[C@H](N)C(=O)N[C@H](CCCNC(=N)N)C(=O)N[C@@H](Cc1ccccc1)C(=O)N(C)[C@@H](C)C(=O)N[C@@H](CCCN1CCC(Cc2ccccc2)CC1)C(=O)N[C@@H](Cc1ccccc1)C(N)=O	intermediate
Cc1cc(O)cc(C)c1C[C@H](N)C(=O)N[C@H](CCCNC(=N)N)C(=O)N[C@H]1Cc2ccccc2CN(CCC(=O)N[C@@H](CCCN2CCC(Cc3ccccc3)CC2)C(=O)N[C@@H](Cc2ccccc2)C(N)=O)C1=O	low
Cc1cc(O)cc(C)c1C[C@H](N)C(=O)N[C@H](CCCNC(=N)N)C(=O)N[C@H]1Cc2ccccc2CN(CCC(=O)N[C@H](CCCN2CCC(Cc3ccccc3)CC2)C(=O)N[C@@H](Cc2ccccc2)C(N)=O)C1=O	intermediate

Could you place `Cc1cc(O)cc(C)c1C[C@H](N)C(=O)N(C)[C@H](C)C(=O)N[C@H]1Cc2c(ccc3ccccc23)CN(CCC(=O)N[C@@H](CCCN2CCC(Cc3ccccc3)CC2)C(=O)N[C@@H](Cc2ccccc2)C(N)=O)C1=O` in its proper category? Many thanks.
low

Which bin should I file `Cc1cc(O)cc(C)c1C[C@H](N)C(=O)N[C@H](CCCNC(=N)N)C(=O)N[C@H]1Cc2ccccc2CN(CC(=O)N[C@@H](CCCN2CCC(Cc3ccccc3)CC2)C(=O)N[C@@H](Cc2ccccc2)C(N)=O)C1=O` under?
intermediate

Which band does `Cc1cc(O)cc(C)c1C[C@H](N)C(=O)N1CCC[C@@H]1C(=O)N[C@H]1Cc2ccccc2CN(CC(=O)N[C@@H](CCCN2CCC(Cc3ccccc3)CC2)C(=O)N[C@@H](Cc2ccccc2)C(N)=O)C1=O` fall in?
high

In plain terms, what class is Cc1cc(O)cc(C)c1C[C@H](N)C(=O)N(C)[C@H](C)C(=O)N[C@H]1Cc2ccccc2CN(CCCC(=O)N[C@@H](CCCN2CCC(Cc3ccccc3)CC2)C(=O)N[C@@H](Cc2ccccc2)C(N)=O)C1=O (H-[Dmt][dNMeA][X2][Nva(5-(4-Bn-piperidin-1-yl))]F-NH2) ?
intermediate

* * *

molecular target: Neuropeptide FF receptor 2 (Homo sapiens, UniProt Q9Y5X5); assay: Displacement of [125I]-1DMeNPFF from human NPFFR2 expressed in CHO cell membrane at 0.05 uM incubated for 1 hr by Topcount counting method relative to control; format: cell membranes; details: filed as antagonist
Sequence (Q9Y5X5 whole entry): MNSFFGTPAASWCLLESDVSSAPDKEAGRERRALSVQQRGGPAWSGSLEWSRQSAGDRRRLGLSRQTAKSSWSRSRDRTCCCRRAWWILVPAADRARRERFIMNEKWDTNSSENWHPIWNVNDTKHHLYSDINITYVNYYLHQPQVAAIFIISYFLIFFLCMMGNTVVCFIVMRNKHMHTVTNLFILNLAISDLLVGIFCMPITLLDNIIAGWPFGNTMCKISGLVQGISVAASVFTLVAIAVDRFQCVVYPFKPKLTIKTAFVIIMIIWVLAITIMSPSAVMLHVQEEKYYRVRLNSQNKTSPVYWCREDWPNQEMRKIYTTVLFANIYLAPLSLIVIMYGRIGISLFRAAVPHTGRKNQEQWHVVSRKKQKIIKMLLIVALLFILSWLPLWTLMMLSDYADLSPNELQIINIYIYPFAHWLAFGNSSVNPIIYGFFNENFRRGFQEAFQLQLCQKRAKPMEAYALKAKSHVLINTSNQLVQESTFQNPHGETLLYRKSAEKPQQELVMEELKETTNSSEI
Numbered stars: 1 amine (or outer) side, 2 acyl side, 3 side chain; on linkers, the order of the positions; unused ones are H or OH. Square brackets hold non-standard residues; d marks the D form. Peptide text beside a SMILES is read from it. Nva(5-(4-Bn-piperidin-1-yl)) = N[C@@H](CCCN1CCC(Cc2ccccc2)CC1)C(=O)O; X1 = O=C1[C@@H](N[*:1])Cc2ccccc2CN1CCC(=O)[*:2]; Dmt = Cc1cc(O)cc(C)c1C[C@H](N)C(=O)O; dOrn = NCCC[C@@H](N)C(=O)O
EXPERIMENTAL READOUT: Activity (%)
Numbers only, in %.

Sample answers from the record:
COMPOUND	Activity (%)
Cc1cc(O)cc(C)c1C[C@H](N)C(=O)N[C@H](CCCNC(=N)N)C(=O)N[C@H]1Cc2ccccc2CN(CCC(=O)N[C@@H](CCCN2CCC(Cc3ccccc3)CC2)C(=O)N[C@@H](Cc2ccccc2)C(N)=O)C1=O	83
Cc1cc(O)cc(C)c1C[C@H](N)C(=O)N(C)[C@H](C)C(=O)N[C@H]1Cc2c(ccc3ccccc23)CN(CCC(=O)N[C@@H](CCCN2CCC(Cc3ccccc3)CC2)C(=O)N[C@@H](Cc2ccccc2)C(N)=O)C1=O	57
Cc1cc(O)cc(C)c1C[C@H](N)C(=O)N(C)[C@H](C)C(=O)N[C@H]1Cc2c(ccc3ccccc23)CN(CC(=O)N[C@@H](CCCN2CCC(Cc3ccccc3)CC2)C(=O)N[C@@H](Cc2ccccc2)C(N)=O)C1=O	51

Now for another entry.
For this compound ( Cc1cc(O)cc(C)c1C[C@H](N)C(=O)N[C@H](CCCN)C(=O)N[C@H]1Cc2ccccc2CN(CCC(=O)N[C@@H](CCCN2CCC(Cc3ccccc3)CC2)C(=O)N[C@@H](Cc2ccccc2)C(N)=O)C1=O (H-[Dmt][dOrn][X1][Nva(5-(4-Bn-piperidin-1-yl))]F-NH2) ), measured Activity is 55

* * *

target: Mu-type opioid receptor (Homo sapiens, UniProt P35372); assay: Agonist activity at human MOP expressed in HEK293 cells coexpressing GloSensor-20F assessed as inhibition of forskolin-induced cAMP accumulation relative to control; format: functional, cell-based; settings: filed as agonist
Numbered stars: 1 amine (or outer) side, 2 acyl side, 3 side chain; on linkers, the order of the positions; unused ones are H or OH. Square brackets hold non-standard residues; d marks the D form. Peptide text beside a SMILES is read from it. Nva(5-(4-Bn-piperidin-1-yl)) = N[C@@H](CCCN1CCC(Cc2ccccc2)CC1)C(=O)O; X1 = O=C1[C@@H](N[*:1])Cc2ccccc2CN1CCC(=O)[*:2]; Dmt = Cc1cc(O)cc(C)c1C[C@H](N)C(=O)O
EXPERIMENTAL READOUT: Emax (%)
Give bare numbers, in %.

COMPOUND	SCALE UNIT	Emax
Cc1cc(O)cc(C)c1C[C@H](N)C(=O)N[C@H](CCCNC(=N)N)C(=O)N[C@H]1Cc2ccccc2CN(CCC(=O)N[C@@H](CCCN2CCC(Cc3ccccc3)CC2)C(=O)N[C@@H](Cc2ccc(O)cc2)C(N)=O)C1=O (H-[Dmt][dR][X1][Nva(5-(4-Bn-piperidin-1-yl))]Y-NH2)	%	88

Quick batch: Emax for everything below.
1. Cc1cc(O)cc(C)c1C[C@H](N)C(=O)N[C@H](CCCNC(=N)N)C(=O)N[C@H]1Cc2ccccc2CN(CCC(=O)N[C@@H](CCCN2CCC(Cc3ccccc3)CC2)C(=O)N[C@@H](CC(C)C)C(N)=O)C1=O (H-[Dmt][dR][X1][Nva(5-(4-Bn-piperidin-1-yl))]L-NH2)
2. Cc1cc(O)cc(C)c1C[C@H](N)C(=O)N[C@H](CCCNC(=N)N)C(=O)N[C@H]1Cc2c(ccc3ccccc23)CN(CC(=O)N[C@@H](CCCN2CCC(Cc3ccccc3)CC2)C(=O)N[C@@H](Cc2c[nH]c3ccccc23)C(N)=O)C1=O
3. Cc1cc(O)cc(C)c1C[C@H](N)C(=O)N[C@H](CCCNC(=N)N)C(=O)N[C@H]1Cc2ccccc2CN(CCC(=O)N[C@@H](CCCN2CCC(Cc3ccccc3)CC2)C(=O)N[C@H](Cc2ccccc2)C(N)=O)C1=O

1: 70; 2: 65; 3: 109

* * *

molecular target: Neuropeptide FF receptor 1 (Homo sapiens); test: Displacement of [125I]-1DMeNPFF from human NPFFR1 expressed in CHO cell membrane at 0.5 uM incubated for 1 hr by Topcount counting method relative to control; type: cell membranes; settings: filed as antagonist
Sequence (Q9GZQ6 whole entry): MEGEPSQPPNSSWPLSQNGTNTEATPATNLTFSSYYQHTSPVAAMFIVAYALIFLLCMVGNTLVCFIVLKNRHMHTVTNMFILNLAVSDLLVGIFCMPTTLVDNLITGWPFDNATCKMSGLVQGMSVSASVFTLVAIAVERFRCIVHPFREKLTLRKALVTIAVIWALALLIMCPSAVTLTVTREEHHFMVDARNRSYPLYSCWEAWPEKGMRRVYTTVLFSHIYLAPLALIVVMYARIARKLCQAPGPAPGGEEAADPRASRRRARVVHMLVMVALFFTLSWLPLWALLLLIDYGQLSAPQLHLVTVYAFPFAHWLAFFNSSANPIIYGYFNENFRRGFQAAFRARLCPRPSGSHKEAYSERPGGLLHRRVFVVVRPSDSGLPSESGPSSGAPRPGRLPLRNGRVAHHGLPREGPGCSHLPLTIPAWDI
Numbered stars: 1 amine (or outer) side, 2 acyl side, 3 side chain; on linkers, the order of the positions; unused ones are H or OH. Square brackets hold non-standard residues; d marks the D form. Peptide text beside a SMILES is read from it. Nva(5-(4-Bn-piperidin-1-yl)) = N[C@@H](CCCN1CCC(Cc2ccccc2)CC1)C(=O)O; X2 = O=C1[C@@H](N[*:1])Cc2ccccc2CN1CCCC(=O)[*:2]; X1 = O=C1[C@@H](N[*:1])Cc2ccccc2CN1CCC(=O)[*:2]; Dmt = Cc1cc(O)cc(C)c1C[C@H](N)C(=O)O; dOrn = NCCC[C@@H](N)C(=O)O; dNMeA = CN[C@H](C)C(=O)O
Output 1 for records whose Activity is lower than 70%, 0 for records at or above 70%.

Solved entries (count: 4):
COMPOUND	CLASS
Cc1cc(O)cc(C)c1C[C@H](N)C(=O)N[C@H](CCCN)C(=O)N[C@H]1Cc2ccccc2CN(CCC(=O)N[C@@H](CCCN2CCC(Cc3ccccc3)CC2)C(=O)N[C@@H](Cc2ccccc2)C(N)=O)C1=O (H-[Dmt][dOrn][X1][Nva(5-(4-Bn-piperidin-1-yl))]F-NH2)	1
Cc1cc(O)cc(C)c1C[C@H](N)C(=O)N(C)[C@H](C)C(=O)N[C@H]1Cc2ccccc2CN(CCCC(=O)N[C@@H](CCCN2CCC(Cc3ccccc3)CC2)C(=O)N[C@@H](Cc2ccccc2)C(N)=O)C1=O (H-[Dmt][dNMeA][X2][Nva(5-(4-Bn-piperidin-1-yl))]F-NH2)	1
Cc1cc(O)cc(C)c1C[C@H](N)C(=O)N[C@H](CCCNC(=N)N)C(=O)N[C@H]1Cc2ccccc2CN(CCC(=O)N[C@@H](CCCN2CCC(Cc3ccccc3)CC2)C(=O)N[C@@H](Cc2ccccc2)C(N)=O)C1=O	0
Cc1cc(O)cc(C)c1C[C@H](NC(=N)N)C(=O)N[C@H](CCCNC(=N)N)C(=O)N[C@H]1Cc2ccccc2CN(CCC(=O)N[C@@H](CCCN2CCC(Cc3ccccc3)CC2)C(=O)N[C@@H](Cc2ccccc2)C(N)=O)C1=O	0

Then this compound:
Is it true that Activity reported for Cc1cc(O)cc(C)c1C[C@H](N)C(=O)N(C)[C@H](C)C(=O)N[C@H]1Cc2ccccc2CN(CCC(=O)N[C@@H](CCCN2CCC(Cc3ccccc3)CC2)C(=O)N[C@@H](Cc2ccccc2)C(N)=O)C1=O (H-[Dmt][dNMeA][X1][Nva(5-(4-Bn-piperidin-1-yl))]F-NH2) is less than 70%?
1
